target: human recombinant HDAC6 (Homo sapiens); experiment: HDAC6 enzyme activity inhibition test (HDAC Fluorometric Drug Discovery Kit); settings: human recombinant HDAC6; same protocol as HDAC1
pIC50: −log10 of the molar value.
Reported Endpoint: pIC50

Compound Structure String	pIC50
FC(F)c1nnc(-c2ccc(Cn3nc(-c4cccc(CN5CCCC5)c4)oc3=S)nc2)o1	7.18
FC(F)c1nnc(-c2ccc(Cn3nc(-c4ccnc(N5CCN(C6CCCC6)CC5)c4)oc3=S)nc2)o1	7.11
O=c1oc(-c2ccc(N3CCNCC3)cc2F)nn1Cc1ccc(-c2nnc(C(F)F)o2)cn1	7.27
O=c1oc(-c2ccc3[nH]ccc3c2)nn1Cc1ccc(-c2nnc(C(F)F)o2)cn1	7.84
FC(F)c1nnc(-c2ccc(Cn3nc(-c4ccc(CN5CCOCC5)cc4)oc3=S)nc2)o1	7.06

[I] O=c1sc(-c2ccccn2)nn1Cc1ccc(-c2nnc(C(F)F)o2)cn1
[II] O=c1sc(-c2cccc(CN3CCN(C4CCC4)CC3)c2)nn1Cc1ccc(-c2nnc(C(F)F)o2)cn1
Min pIC50? I | II Lab note: record the label of whichever item you select.
II

[I] O=c1oc(-c2cccc(N3CCN(C4COC4)CC3)c2)nn1Cc1ccc(-c2nnc(C(F)F)o2)cn1
[II] FC(F)c1nnc(-c2ccc(Cn3nc(-c4cccc(N5CCN(C6CCCC6)CC5)n4)oc3=S)nc2)o1
Could you kindly indicate whether I or II has the higher pIC50 value? Lab note: record the label of whichever item you select.
II
(II: 7.38, I: 7.12)

[A] Cc1nc(-c2nn(Cc3ncc(-c4nnc(C(F)F)o4)cc3F)c(=S)o2)cs1
[B] CN1CCN(c2nccc(-c3nn(Cc4ccc(-c5nnc(C(F)F)o5)cn4)c(=S)o3)n2)CC1
Min pIC50? A | B Lab note: record the label of whichever item you select.
A

###

Target: human recombinant HDAC6 (Homo sapiens)
Construct: purchased Calbiochem 382180
Sequence (Q9UBN7 1-1215): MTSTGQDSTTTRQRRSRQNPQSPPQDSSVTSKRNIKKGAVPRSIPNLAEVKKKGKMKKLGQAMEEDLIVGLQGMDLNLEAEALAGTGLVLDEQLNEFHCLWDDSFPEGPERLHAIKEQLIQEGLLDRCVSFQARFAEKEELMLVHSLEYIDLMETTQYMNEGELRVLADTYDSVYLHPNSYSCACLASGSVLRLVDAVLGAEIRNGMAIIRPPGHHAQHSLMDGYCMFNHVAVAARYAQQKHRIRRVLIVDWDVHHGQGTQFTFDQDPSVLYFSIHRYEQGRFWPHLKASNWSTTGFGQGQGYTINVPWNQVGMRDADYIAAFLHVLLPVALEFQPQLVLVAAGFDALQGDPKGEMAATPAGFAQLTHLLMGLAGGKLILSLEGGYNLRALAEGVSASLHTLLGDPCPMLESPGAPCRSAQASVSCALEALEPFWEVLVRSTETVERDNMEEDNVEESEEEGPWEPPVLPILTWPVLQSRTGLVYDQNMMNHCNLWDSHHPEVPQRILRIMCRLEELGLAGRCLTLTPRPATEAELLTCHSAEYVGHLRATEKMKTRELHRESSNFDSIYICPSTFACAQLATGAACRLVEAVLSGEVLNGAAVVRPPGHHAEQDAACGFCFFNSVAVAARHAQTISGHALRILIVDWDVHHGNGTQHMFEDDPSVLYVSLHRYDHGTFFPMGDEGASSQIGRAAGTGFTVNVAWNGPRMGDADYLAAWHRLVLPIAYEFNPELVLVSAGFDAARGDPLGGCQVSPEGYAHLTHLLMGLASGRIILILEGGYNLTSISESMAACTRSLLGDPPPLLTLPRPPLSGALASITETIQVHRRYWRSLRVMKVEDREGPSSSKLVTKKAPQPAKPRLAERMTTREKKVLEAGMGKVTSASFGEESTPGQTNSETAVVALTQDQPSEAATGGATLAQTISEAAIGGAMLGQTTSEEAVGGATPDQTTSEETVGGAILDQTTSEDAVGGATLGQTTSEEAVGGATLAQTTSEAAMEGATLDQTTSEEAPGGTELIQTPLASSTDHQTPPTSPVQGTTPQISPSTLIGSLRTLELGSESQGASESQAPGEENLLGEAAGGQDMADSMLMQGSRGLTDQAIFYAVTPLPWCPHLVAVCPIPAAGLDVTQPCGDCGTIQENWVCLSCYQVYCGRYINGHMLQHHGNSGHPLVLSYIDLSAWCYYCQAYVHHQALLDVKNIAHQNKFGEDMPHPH
Experiment: HDAC6 enzyme activity inhibition test (HDAC Fluorometric Drug Discovery Kit)
Format: biochemical
Conditions: HDAC6 over HDAC1
Reported Endpoint: HDAC6 selectivity (fold)

Molecule	HDAC6 selectivity (fold)
CN(C)Cc1ccc(-c2nn(Cc3ncc(-c4nnc(C(F)F)o4)cc3F)c(=S)o2)cc1 [Compound 107]	1163
O=c1sc(-c2cccc(C3CCN(C4COC4)CC3)c2F)nn1Cc1ccc(-c2nnc(C(F)F)o2)cn1 [Compound 58]	643

[1] FC(F)c1nnc(-c2ccc(Cn3nc(-c4ccc(CN5CC[C@@H](F)C5)s4)oc3=S)nc2)o1 [Compound 124]
[2] Fc1cc(-c2nnc(C(F)F)o2)cnc1Cn1nc(-c2ccc3c(c2)CCN(C2CCCCC2)C3)oc1=S [Compound 138]
Min HDAC6 selectivity (fold)? 1 | 2 Lab note: record the label of whichever item you select.
1
(1: 491 fold, 2: 1042 fold)

[A] CN(C)Cc1ccc(-c2nn(Cc3ncc(-c4nnc(C(F)F)o4)cc3F)c(=S)o2)s1 [Compound 128]
[B] CN1CCC(c2cccc(-c3nn(Cc4ccc(-c5nnc(C(F)F)o5)cn4)c(=O)s3)c2F)CC1 [Compound 41]
Min HDAC6 selectivity (fold)? A | B Lab note: record the label of whichever item you select.
A

###

molecular target: human recombinant HDAC6 (Homo sapiens); assay: HDAC6 enzyme activity inhibition test (HDAC Fluorometric Drug Discovery Kit); conditions: human recombinant HDAC6; same protocol as HDAC1
pIC50: −log10 of the molar value.
Reported Endpoint: pIC50

Compound Structure String	pIC50
CCN1CCc2cc(-c3nn(Cc4ccc(-c5nnc(C(F)F)o5)cn4)c(=S)o3)sc2C1	7.35
CN1CCC(c2cc(-c3nn(Cc4ccc(-c5nnc(C(F)F)o5)cn4)c(=S)o3)ccc2F)CC1	6.99

[I] O=c1oc(-c2cccc(C3CCN(C4COC4)CC3)c2F)nn1Cc1ccc(-c2nnc(C(F)F)o2)cn1
[II] CC(C)N1CCN(Cc2ccc(-c3nn(Cc4ccc(-c5nnc(C(F)F)o5)cn4)c(=O)s3)cc2)CC1
Could you kindly indicate whether I or II has the higher pIC50 value? Lab note: record the label of whichever item you select.
II

###

biological target: human recombinant HDAC6 (Homo sapiens, UniProt Q9UBN7); construct: purchased Calbiochem 382180; assay: HDAC6 enzyme activity inhibition test (HDAC Fluorometric Drug Discovery Kit); assay type: biochemical; details: human recombinant HDAC6; same protocol as HDAC1
Reported Endpoint: IC50 (nM)

See these solved cases before continuing.
Compound	Quantitative Readout
O=c1oc(-c2ccc3scnc3c2)nn1Cc1ccc(-c2nnc(C(F)F)o2)cn1 [Compound 18]	65.1
Fc1cc(-c2nnc(C(F)F)o2)cnc1Cn1nc(-c2ccc(CN3CC(F)C3)cc2)oc1=S [Compound 110]	54.4
O=C1OCC(c2cccs2)=NN1Cc1ccc(-c2nnc(C(F)F)o2)cn1 [Compound 69]	115

[P] O=c1sc(-c2ccc(CN3CCN(C4CCC4)CC3)cc2)nn1Cc1ccc(-c2nnc(C(F)F)o2)cn1 [Compound 67]
[Q] Fc1c(-c2nn(Cc3ccc(-c4nnc(C(F)F)o4)cn3)c(=S)o2)cccc1C1CCN(C2CCCC2)CC1 [Compound 82]
Could you kindly indicate whether P or Q has the higher IC50 value? Lab note: record the label of whichever item you select.
Q

[I] CC(C)N1CCC(c2cccc(-c3nn(Cc4ccc(-c5nnc(C(F)F)o5)cn4)c(=O)s3)c2F)CC1 [Compound 57]
[II] O=c1sc(-c2ccccc2F)nn1Cc1ccc(-c2nnc(C(F)F)o2)cn1 [Compound 54]
Could you kindly indicate whether I or II has the higher IC50 value? Lab note: record the label of whichever item you select.
II

[P] CCN(CC)Cc1ccc(-c2nn(Cc3ncc(-c4nnc(C(F)F)o4)cc3F)c(=S)o2)cc1 [Compound 109]
[Q] FC(F)c1nnc(-c2ccc(Cn3nc(-c4csc(CN5CCC5)c4)oc3=S)nc2)o1 [Compound 134]
[R] O=c1oc(-c2cccc3[nH]ccc23)nn1Cc1ccc(-c2nnc(C(F)F)o2)cn1 [Compound 34]
[S] CNCc1cccc(-c2nn(Cc3ccc(-c4nnc(C(F)F)o4)cn3)c(=S)o2)c1 [Compound 85]
Rank by IC50 (largest to smallest). Please respond by ranking the labels in the order requested.
S, Q, P, R

[P] CC(C)N1CCN(c2cc(-c3nn(Cc4ccc(-c5nnc(C(F)F)o5)cn4)c(=S)o3)ccn2)CC1 [Compound 105]
[Q] CN1CCN(c2cccc(-c3nn(Cc4ccc(-c5nnc(C(F)F)o5)cn4)c(=O)o3)c2)CC1 [Compound 37]
Min IC50? P | Q Lab note: record the label of whichever item you select.
P
(P: 68.1 nM, Q: 97.7 nM)
